Tested on: human lung cancer strain NCI-H441
Type: cell-based
Method: A test compound was dispensed into a U-bottom 384-well plate as 40 nL serially diluted dimethyl sulfoxide solutions using a liquid handler Echo (LABCYTE). […] This cell suspension was dispensed in an amount of 40 µL per well into a plate containing the test compound, and cultured at 37°C in a 5% carbon dioxide gas incubator. Four days later, 20 µL of CellTiter-Glo (registered trademark) (Promega) was added to each well and […] was measured. […]
*1 amine or outer side, *2 acyl side, *3 side chain or, on linkers, in order; H or OH if unused. Where a SMILES comes first, the peptide text is derived from it. Bridges are numbered along the chain shown (N, C = ends). [ ]: non-standard residue; d: D form. The star is where a group is joined. hPhe(3-Cl-4-CF3) = N[C@@H](CCc1ccc(C(F)(F)F)c(Cl)c1)C(=O)O; X46 = C=CCCN([C@@H](Cc1ccc(C)cc1)C(=O)[*:2])[*:1]; NMeGly(cPent) = CN[C@H](C(=O)O)C1CCCC1; NMeD = CN[C@@H](CC(=O)O)C(=O)O; NMeL = CN[C@@H](CC(C)C)C(=O)O; Morpholide = C1CN(*)CCO1; Ac5c = NC1(C(=O)O)CCCC1; Sar = CNCC(=O)O
attribute.measured: IC50 (nM)
Numeric only. Scale: nM

Sample answers from the record:
INSERT INTO measurements (molecule, scale_unit, experimental_result) VALUES
  ('CC[C@H](C)[C@@H]1NC(=O)[C@H](CC(C)C)N(C)C(=O)C[C@@H](C(=O)N2CCOCC2)N(C)C(=O)[C@H](C2CCCC2)N(C)C(=O)C2(CCCC2)NC(=O)[C@@H]2CCCN2C(=O)[C@H](CCc2cc(F)c(C(F)(F)F)c(F)c2)NC(=O)CN(C)C(=O)[C@H](Cc2ccc(C(F)(F)F)cc2)N2CCCC[C@@H](C2=O)N(C)C(=O)CNC1=O', 'nM', 3.4),
  ('C=CCCN1C(=O)CN(C)C(=O)CN(C)C(=O)[C@H]([C@@H](C)CC)NC(=O)[C@H](CC(C)C)N(C)C(=O)C[C@@H](C(=O)N2CCOCC2)N(C)C(=O)[C@H](C2CCCC2)N(C)C(=O)C2(CCCC2)NC(=O)[C@@H]2CCCN2C(=O)[C@H](CCc2ccc(C(F)(F)F)c(Cl)c2)NC(=O)CN(C)C(=O)[C@@H]1Cc1ccc(C)cc1 [PP0101] ([NMeL]I[Sar][Sar][X46][Sar][hPhe(3-Cl-4-CF3)]P[Ac5c][NMeGly(cPent)][NMeD]-Morpholide; lactam N-11)', 'nM', 10.4);

Task: What value of measured IC50 is listed for `CC[C@H](C)[C@@H]1NC(=O)[C@H](CC(C)C)N(C)C(=O)C[C@@H](C(=O)N2CCOCC2)N(C)C(=O)[C@H](C2CCCC2)N(C)C(=O)C2(CCCC2)NC(=O)[C@@H]2CCCN2C(=O)[C@H](CCc2cc(F)c(C(F)(F)F)c(F)c2)NC(=O)CN(C)C(=O)[C@H](Cc2ccc(C(F)(F)F)cc2)N2CCCC[C@@H](C2=O)N(C)C(=O)[C@H](C)NC1=O` ?
Output: 41.5

Numbers sourced from patent EP4603105A1.
